Method Description: in vitro
Condition Summary: human, HeLa cells
Description: Selectivity index, ratio of CC50 for human HeLa cells to EC50 GFP-fused RSV 224 fusion protein infected in human HeLa cells
As shown below, each of these compounds has a reported selectivity ratio value.

Solved cases below.
Structure Notation	selectivity ratio
O=c1n(Cc2cc3ncccc3n2CCCCO)c2cnccc2n1C1CC1	> 613
CC(C)CCn1c(Cn2c(=O)n(C3CC3)c3ccncc32)nc2cccnc21	> 80

Which measured selectivity ratio value corresponds to "O=c1n(Cc2nc3ncccc3n2CCCCO)c2cnccc2n1C1CC1" ? > 10000

Reported selectivity ratio for "CC(C)CCn1c(Cn2c(=O)n(C3CC3)c3ccncc32)nc2cnccc21" : what is it? > 3000

Using the record for "O=c1n(Cc2cc3cnccc3n2CCCCO)c2cnccc2n1C1CC1" , report its selectivity ratio. > 57000

----------
Method Description: Cytotoxicity against human HeLa cells assessed as reduction in cell viability after 3 days by ATPlite assay
Endpoint: CC50 at 72 h

Below are worked cases with known answers.
Structure Notation	Endpoint	Result
COc1ccc(-n2c(=O)n(Cc3cc4cc(Cl)ccc4n3CCCC#N)c3cnccc32)cc1C	CC50 at 72 h	> 50 µM
CC(C)CCn1c(Cn2c(=O)n(C3CC3)c3ccncc32)nc2cnccc21	CC50 at 72 h	> 100 µM
CC(C)CCn1c(Cn2c(=O)n(C3CC3)c3ccncc32)cc2ccccc21	CC50 at 72 h	> 100 µM
Cn1ccc(-n2c(=O)n(Cc3cc4cc(Cl)ccc4n3CCCC#N)c3cnccc32)n1	CC50 at 72 h	> 50 µM
N#CCCCn1c(Cn2c(=O)n(-c3ccncc3)c3ccncc32)cc2cc(Cl)ccc21	CC50 at 72 h	> 50 µM
O=c1n(Cc2cc3ccc(Cl)cc3n2CCCCO)c2cnccc2n1C1CC1	CC50 at 72 h	> 50 µM
N#CCCCn1c(Cn2c(=O)n(-c3ncccn3)c3ccncc32)cc2cc(Cl)ccc21	CC50 at 72 h	> 50 µM
O=c1n(Cc2cc3cnccc3n2CCCCF)c2cnccc2n1C1CC1	CC50 at 72 h	> 50 µM
O=c1n(Cc2nc3nc(Cl)ccc3n2CCCC(F)(F)F)c2cnccc2n1C1CC1	CC50 at 72 h	> 50 µM
COc1ccc(-n2c(=O)n(Cc3cc4cc(Cl)ccc4n3CCCC#N)c3cnccc32)c(F)c1	CC50 at 72 h	> 50 µM

Here is the next item to consider.
Consider the compound shown here: "COc1ccc2c(c1)cc(Cn1c(=O)n(C3CC3)c3ccncc31)n2CCCCO" What is its recorded CC50 at 72 h? > 50 µM

----------
Method Description: Metabolic stability in human liver microsomes assessed as compound metabolized after 15 mins
Type: ADME, Microsome
Condition Summary: read-out: Drug metabolism
Sorting guide: entries reporting metabolised at 0.25 h beneath 20% go in the 1 pile, the rest go in the 0 pile.

Recorded results for 4 compounds are shown here.
Compound	Class Label
CS(=O)(=O)c1ccc(-n2c(=O)n(Cc3cc4cc(Cl)ccc4n3CCCC#N)c3cnccc32)cc1	1
O=c1n(Cc2cc3cc(Cl)ccc3n2CCCC(F)(F)F)c2cnccc2n1C1CC1	0
N#CCCCn1c(Cn2c(=O)n(-c3ncco3)c3ccncc32)cc2cc(Cl)ccc21	0
CC(C)(C)n1c(=O)n(Cc2cc3cc(Cl)ccc3n2CCCS(C)(=O)=O)c2cnccc21	0

Would you kindly verify if metabolised at 0.25 h of CC(n1c(=O)n(Cc2cc3cc(Cl)ccc3n2CCCS(C)(=O)=O)c2cnccc21)C(F)(F)F (stereo not drawn) is strictly less than 20%? 1

# strict comparison: is reported metabolised at 0.25 h < 20%? input = "Cn1ccc(-n2c(=O)n(Cc3cc4cc(Cl)ccc4n3CCCC#N)c3cnccc32)n1" 0

----------
Method Description: Cytotoxicity against human HeLa cells assessed as reduction in cell viability after 3 days by ATPlite assay
Below: a set of entries, each annotated with reported CC50 at 72 h.

Structure Notation	CC50 at 72 h
CS(=O)(=O)CCCn1c(Cn2c(=O)n(C3CC3)c3ccncc32)cc2cnccc21	> 50 µM
CS(=O)(=O)CCCn1c(Cn2c(=O)n(CC#N)c3ccncc32)cc2cc(Cl)ccc21	> 50 µM

Entry under review: "O=c1n(Cc2cc3ccncc3n2CCCCO)c2cnccc2n1C1CC1" . Reported CC50 at 72 h? > 100 µM

----------
Method Description: Metabolic stability in human liver microsomes assessed as compound metabolized after 15 mins
Type: ADME, Microsome
Condition Summary: read-out: Drug metabolism
Endpoint: metabolised at 0.25 h (%)
Express your answer in %, writing the number without its unit.

Structure Notation	Unit Abbreviation	Readout Number
COc1ccc(-n2c(=O)n(Cc3cc4cc(Cl)ccc4n3CCCC#N)c3cnccc32)cc1	%	20
COc1ccc(-n2c(=O)n(Cc3cc4cc(Cl)ccc4n3CCCC#N)c3cnccc32)cc1OC	%	19
CC(C)(O)CCCn1c(Cn2c(=O)n(C3CC3)c3ccncc32)nc2nc(Cl)ccc21	%	41

Please look up its metabolised at 0.25 h: "CS(=O)(=O)CCCn1c(Cn2c(=O)n(C3CC3)c3ccncc32)nc2nc(Cl)ccc21" 0

What measured metabolised at 0.25 h goes with "CS(=O)(=O)CCCn1c(Cn2c(=O)[nH]c3ccncc32)cc2cc(Cl)ccc21" ? 9

Form field: reported metabolised at 0.25 h of "N#CCCCn1c(Cn2c(=O)n(-c3ncccn3)c3ccncc32)cc2cc(Cl)ccc21" 34

Bench note: what metabolised at 0.25 h did "N#CCCCn1c(Cn2c(=O)n(-c3ccncc3F)c3ccncc32)cc2cc(Cl)ccc21" show? 27

I am curious: what metabolised at 0.25 h value has been reported for "N#CCCCn1c(Cn2c(=O)n(-c3ccc(C(=O)O)cc3)c3ccncc32)cc2cc(Cl)ccc21" ? 9

I'd like to know its metabolised at 0.25 h. The compound in question is "N#CCCCn1c(Cn2c(=O)n(-c3ccncn3)c3ccncc32)cc2cc(Cl)ccc21" 60

Any idea what metabolised at 0.25 h was measured for "CC(C)n1c(=O)n(Cc2cc3cc(Cl)ccc3n2CCCS(C)(=O)=O)c2cnccc21" ? 97

Tell me the measured metabolised at 0.25 h of "O=c1n(Cc2cc3cnccc3n2CCCC(F)(F)F)c2cnccc2n1C1CC1" , please. 21

# metabolised at 0.25 h lookup, item "N#CCCCn1c(Cn2c(=O)n(-c3ccc(C(=O)NC4CC4)cc3)c3ccncc32)cc2cc(Cl)ccc21" 24

----------
Method Description: Cytotoxicity against human HeLa cells assessed as reduction in cell viability after 3 days by ATPlite assay
Endpoint: CC50 at 72 h

Structure Notation	CC50 at 72 h
CS(=O)(=O)CCCn1c(Cn2c(=O)n(C3CC3)c3ccncc32)cc2cc(F)ccc21	> 50 µM
N#CCCCn1c(Cn2c(=O)n(-c3ccc(OC(F)(F)F)cc3)c3ccncc32)cc2cc(Cl)ccc21	> 50 µM
COc1ccc(-n2c(=O)n(Cc3cc4cc(Cl)ccc4n3CCCC#N)c3cnccc32)cc1OC	> 50 µM
O=c1n(Cc2cc3ncccc3n2CCCCO)c2cnccc2n1C1CC1	> 100 µM
CC(C)(C)n1c(=O)n(Cc2cc3cc(Cl)ccc3n2CCCS(C)(=O)=O)c2cnccc21	> 50 µM
COc1ccc(-n2c(=O)n(Cc3cc4cc(Cl)ccc4n3CCCC#N)c3cnccc32)cc1	> 50 µM
O=c1n(Cc2nc3ncccc3n2CCCCO)c2cnccc2n1C1CC1	> 100 µM
CS(=O)(=O)CCCn1c(Cn2c(=O)[nH]c3ccncc32)cc2cc(Cl)ccc21	> 50 µM
O=c1n(Cc2cc3cc(Cl)ccc3n2CCCCF)c2cnccc2n1C1CC1	> 50 µM

Next compound, please.
Field request: CC50 at 72 h | item: "O=c1n(Cc2cc3cc(F)ccc3n2CCCCO)c2cnccc2n1C1CC1" > 50 µM
